Where do the numbers come from? From patent EP0194548A2.

Test system: Mäusen
ASSAY NOTES: Prolongation of bleeding time (tail tip cut) after oral dosing
Type: in vivo
DETAILS: conscious mice, 10 mg/kg p.o., 1 hour after dosing, 5 animals per test, versus controls without substance
Rule: Verlängerung der Blutungszeit in % nach 1 Stunde of 200% or more gives class 1; anything lower gives class 0.

>>> print(df.to_string())
                                   compound     tgt  assigned_label
0  O=C1CCC(c2ccc(CCNS(=O)(=O)c3ccccc3)cc2)=NN1  Mäusen         class 0
1  O=C(O)CCC(=O)c1ccc(CCNS(=O)(=O)c2ccccc2)cc1  Mäusen         class 1
2  O=C1CCC(c2ccc(OCCNS(=O)(=O)c3ccccc3)cc2)=NN1  Mäusen         class 1
3  Cc1ccc(S(=O)(=O)NCCc2ccc(C3=NNC(=O)CC3C)cc2)cc1 (stereo not drawn)  Mäusen         class 0
4  O=C(O)CCC(=O)c1ccc(CCNS(=O)(=O)c2ccc(Cl)cc2)cc1  Mäusen         class 0

Hi team, for COCCOC(=O)CCC(=O)c1ccc(CCNS(=O)(=O)c2ccccc2)cc1 , is the recorded Verlängerung der Blutungszeit in % nach 1 Stunde at or above 200%?
class 0
